# Subject of test: HLA-A*0206 (human)
# Protocol: competition with 125I probe peptide for purified HLA
Where no end group is shown, it is not given here. [ ]: non-standard residue; d: D form. Abu = CC[C@H](N)C(=O)O
Result type: pIC50
On this scale, pIC50 is minus log10 of a concentration expressed in M (mol/L).

Examples from the recorded data:
Binder	pIC50
QLFEDNYALA [Her2/neu.106 (10-mer) QLFEDNYALA]	6.66
AM[Abu]RWGLLV [Her2/neu.5M2B3V9 AMBRWGLLV]	6.14
AT[Abu]RWGLLV [Her2/neu.5.T2B3V9 ATBRWGLLV]	5.66
ALCRWGLLLA [Her2/neu.5 (10-mer) ALCRWGLLLA]	5.71
AV[Abu]RWGLLV [Her2/neu.5V2B3V9 AVBRWGLLV]	5.66

Ask | Output measured pIC50 for this item: QLMPYGCLL [Her2/neu.799 QLMPYGCLL]
Reply | 6.15
